# PROTOCOL NOTES: Cytotoxicity against human 518A2 cells measured after 96 hrs by SRB assay
# Format: functional, cell-based
# SETUP CONDITIONS: 518A2, 96 h
Provide the reported log10 EC50 of each item.
Log scale reminder: EC50 in µM, then log10 taken.

Reference set (10 entries):
{"columns": ["CPD SMILES", "PROPERTY NAME", "MEASURED NUMBER"],
 "data": [
  ["CC(=O)O[C@H]1CC[C@]2(C)[C@H]3CC=C4[C@@H]5[C@@H](C)[C@H](C)CC[C@]5(C(=O)Nc5cccc6ncccc56)CC[C@@]4(C)[C@]3(C)CC[C@H]2C1(C)C", "log10 EC50", 0.54],
  ["CC(=O)O[C@H]1C[C@]2(C)[C@H]3CC=C4[C@@H]5[C@@H](C)[C@H](C)CC[C@]5(C(=O)Nc5ccc6cccnc6c5)CC[C@@]4(C)[C@]3(C)CC[C@H]2C(C)(C)[C@H]1OC(C)=O", "log10 EC50", 0.38],
  ["CC(=O)O[C@H]1C[C@]2(C)[C@H]3CC=C4[C@@H]5CC(C)(C)CC[C@]5(C(=O)Nc5cncc6ccccc56)CC[C@@]4(C)[C@]3(C)CC[C@H]2C(C)(C)[C@H]1OC(C)=O", "log10 EC50", 0.20],
  ["CC(=O)O[C@H]1C[C@]2(C)[C@H]3CC=C4[C@@H]5[C@@H](C)[C@H](C)CC[C@]5(C(=O)Nc5ccnc6ccccc56)CC[C@@]4(C)[C@]3(C)CC[C@H]2C(C)(C)[C@H]1OC(C)=O", "log10 EC50", 0.81],
  ["CC(=O)O[C@H]1C[C@]2(C)[C@H]3CC=C4[C@@H]5[C@@H](C)[C@H](C)CC[C@]5(C(=O)Nc5cnc6ccccc6c5)CC[C@@]4(C)[C@]3(C)CC[C@H]2C(C)(C)[C@H]1OC(C)=O", "log10 EC50", 0.40],
  ["CC(=O)O[C@H]1C[C@]2(C)[C@H]3CC=C4[C@@H]5CC(C)(C)CC[C@]5(C(=O)Nc5ccc6ncccc6c5)CC[C@@]4(C)[C@]3(C)CC[C@H]2C(C)(C)[C@H]1OC(C)=O", "log10 EC50", 0.46],
  ["CC(=O)O[C@H]1C[C@]2(C)[C@H]3CC=C4[C@@H]5CC(C)(C)CC[C@]5(C(=O)Nc5ccc6cccnc6c5)CC[C@@]4(C)[C@]3(C)CC[C@H]2C(C)(C)[C@H]1OC(C)=O", "log10 EC50", 0.20],
  ["CC(=O)O[C@H]1C[C@]2(C)[C@H]3CC=C4[C@@H]5CC(C)(C)CC[C@]5(C(=O)Nc5ccncc5)CC[C@@]4(C)[C@]3(C)CC[C@H]2C(C)(C)[C@H]1OC(C)=O", "log10 EC50", 0.62],
  ["CC(=O)OC[C@@]1(C)[C@@H]2CC[C@]3(C)[C@H](CC=C4[C@@H]5[C@@H](C)[C@H](C)CC[C@]5(C(=O)Nc5cccc6ncccc56)CC[C@]43C)[C@@]2(C)C[C@@H](OC(C)=O)[C@@H]1OC(C)=O", "log10 EC50", -0.30],
  ["CC(=O)O[C@H]1C[C@]2(C)[C@H]3CC=C4[C@@H]5[C@@H](C)[C@H](C)CC[C@]5(C(=O)Nc5ccc6ncccc6c5)CC[C@@]4(C)[C@]3(C)CC[C@H]2C(C)(C)[C@H]1OC(C)=O", "log10 EC50", 0.62]
]}

Each of the following entries comes with a recorded value; kindly state log10 EC50 for each.
1. CC(=O)O[C@H]1C[C@]2(C)[C@H]3CC=C4[C@@H]5[C@@H](C)[C@H](C)CC[C@]5(C(=O)Nc5ccncc5)CC[C@@]4(C)[C@]3(C)CC[C@H]2C(C)(C)[C@H]1OC(C)=O
2. CC(=O)O[C@H]1C[C@]2(C)[C@H]3CC=C4[C@@H]5[C@@H](C)[C@H](C)CC[C@]5(C(=O)Nc5cccnc5)CC[C@@]4(C)[C@]3(C)CC[C@H]2C(C)(C)[C@H]1OC(C)=O
3. CC(=O)O[C@H]1C[C@]2(C)[C@H]3CC=C4[C@@H]5CC(C)(C)CC[C@]5(C(=O)Nc5cnc6ccccc6c5)CC[C@@]4(C)[C@]3(C)CC[C@H]2C(C)(C)[C@H]1OC(C)=O
4. CC(=O)O[C@H]1C[C@]2(C)[C@H]3CC=C4[C@@H]5CC(C)(C)CC[C@]5(C(=O)Nc5cccc6ncccc56)CC[C@@]4(C)[C@]3(C)CC[C@H]2C(C)(C)[C@H]1OC(C)=O
5. CC(=O)O[C@H]1C[C@]2(C)[C@H]3CC=C4[C@@H]5[C@@H](C)[C@H](C)CC[C@]5(C(=O)O)CC[C@@]4(C)[C@]3(C)CC[C@H]2C(C)(C)[C@H]1OC(C)=O
6. CC(=O)O[C@H]1C[C@]2(C)[C@H]3CC=C4[C@@H]5[C@@H](C)[C@H](C)CC[C@]5(C(=O)Nc5cccc6cccnc56)CC[C@@]4(C)[C@]3(C)CC[C@H]2C(C)(C)[C@H]1OC(C)=O
7. CC(=O)O[C@H]1C[C@]2(C)[C@H]3CC=C4[C@@H]5[C@@H](C)[C@H](C)CC[C@]5(C(=O)Nc5cccc6ncccc56)CC[C@@]4(C)[C@]3(C)CC[C@H]2C(C)(C)[C@H]1OC(C)=O
8. CC(=O)O[C@H]1C[C@]2(C)[C@H]3CC=C4[C@@H]5CC(C)(C)CC[C@]5(C(=O)Nc5cccnc5)CC[C@@]4(C)[C@]3(C)CC[C@H]2C(C)(C)[C@H]1OC(C)=O

**Result**
1. 0.92
2. 0.30
3. 0.46
4. 0.08
5. 1.25
6. 1.12
7. 0.30
8. 0.23
